molecular target: PAR-1 receptor (Homo sapiens, UniProt P25116); construct: endogenous in cells; test: PAR-1 FLIPR Assay; settings: HEK 293 cells, FLIPR calcium-5 dye; inhibition of signal from PAR1 selective receptor-activating peptide at 80% activation concentration (1.4-2.0 uM); compound incubated 30 minutes at 25 degrees
Sequence (P25116 22-425): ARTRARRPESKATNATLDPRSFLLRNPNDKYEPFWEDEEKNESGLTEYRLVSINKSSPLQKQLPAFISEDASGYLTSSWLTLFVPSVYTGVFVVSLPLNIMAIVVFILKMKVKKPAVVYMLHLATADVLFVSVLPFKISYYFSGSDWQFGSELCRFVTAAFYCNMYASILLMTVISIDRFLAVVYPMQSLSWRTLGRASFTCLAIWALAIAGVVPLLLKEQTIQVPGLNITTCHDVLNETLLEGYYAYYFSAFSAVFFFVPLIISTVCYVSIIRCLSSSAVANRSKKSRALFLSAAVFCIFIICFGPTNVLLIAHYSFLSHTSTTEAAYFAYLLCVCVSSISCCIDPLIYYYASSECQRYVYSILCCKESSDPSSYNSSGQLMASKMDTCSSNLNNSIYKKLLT
pIC50: −log10 of the molar value.
endpoint: pIC50

>>> reported_value("C[C@H]1NS(=O)(=O)[C@@H]2CC(F)(F)[C@@H](C)[C@H](/C=C/c3ccc(-c4cccnc4C#N)cn3)[C@@H]21")
7.25

(1) C[C@H]1NS(=O)(=O)[C@]2(C)CC(F)(F)[C@@H](C)[C@H](/C=C/c3ccc(-c4cccc(F)c4)cn3)[C@H]12
(2) C[C@H]1NS(=O)(=O)[C@@H]2CC(F)(F)[C@@H](C)[C@H](/C=C/c3ccc(-c4ccccc4C#N)cn3)[C@@H]21
(3) COc1ncccc1-c1ccc(/C=C/[C@@H]2[C@@H]3[C@@H](C)N(C(=O)OC(C)(C)C)S(=O)(=O)[C@@H]3CC(F)(F)[C@H]2C)nc1
(4) COc1ncccc1-c1ccc(/C=C/[C@@H]2[C@H]3[C@@H](CC(F)(F)[C@H]2C)S(=O)(=O)N[C@@H]3C)nc1
In: List from greatest to least pIC50. Output spec: a listing of the labels in the requested order.
Out: 4, 2, 1, 3
(4: 8.29, 2: 7.92, 1: 7.26, 3: 6.56)

---

target: PAR-1 receptor (Homo sapiens, UniProt P25116); construct: endogenous in cells; assay: PAR-1 FLIPR Assay; details: HEK 293 cells, FLIPR calcium-5 dye; inhibition of signal from PAR1 selective receptor-activating peptide at 80% activation concentration (1.4-2.0 uM); compound incubated 30 minutes at 25 degrees
pIC50: −log10 of the molar value.
endpoint: pIC50

Here is how some compounds turned out for pIC50.
>>> reported_value("CC[C@@H]1CC[C@@H]2[C@H]([C@H]1/C=C/c1ccc(-c3ccccc3C#N)cn1)[C@@H](C)N(C)S2(=O)=O [Example 27]")
7.89
>>> reported_value("CCOC(=O)N1[C@H](C)[C@H]2[C@@H](/C=C/c3ccc(-c4ccccc4C#N)cn3)[C@H](CC)CC[C@H]2S1(=O)=O [Example 28]")
6.49
>>> reported_value("COc1ncccc1-c1ccc(/C=C/[C@@H]2[C@@H]3[C@@H](C)N(C(=O)OC(C)(C)C)S(=O)(=O)[C@@]3(CC(N)=O)CC(F)(F)[C@H]2C)nc1 [Example 19]")
7.27
>>> reported_value("C[C@H]1NS(=O)(=O)[C@]2(CC(N)=O)CC(F)(F)[C@@H](C)[C@H](/C=C/c3ccc(-c4ccccc4C#N)cn3)[C@H]12 [Example 23]")
8.52
>>> reported_value("C[C@H]1NS(=O)(=O)[C@@H]2CC(F)(F)[C@@H](C)[C@H](/C=C/c3ccc(-c4cccc(F)c4)cn3)[C@@H]21 [Example 5]")
7.72

(P) C[C@@H]1[C@H](/C=C/c2ccc(-c3ccccc3C#N)cn2)[C@H]2[C@@H](CC1(F)F)S(=O)(=O)N[C@@H]2C [Example 8]
(Q) COc1ncccc1-c1ccc(/C=C/[C@@H]2[C@@H]3[C@@H](C)NS(=O)(=O)[C@]3(C)CC(F)(F)[C@H]2C)nc1 [Example 12]
In: Could you please tell me which of these two has the higher pIC50: P or Q ? Record your answer as the label of the chosen record.
Out: Q

(a) CC[C@@H]1CC[C@@H]2[C@H]([C@H]1/C=C/c1ccc(-c3ccccc3C#N)cn1)[C@@H](C)N(C(=O)OC(C)(C)C)S2(=O)=O [Example 11]
(b) COc1ncccc1-c1ccc(/C=C/[C@@H]2[C@@H]3[C@@H](C)NS(=O)(=O)[C@]3(CC(N)=O)CC(F)(F)[C@H]2C)nc1 [Example 18]
In: Param pair: a , b . Output: the one whose pIC50 is numerically greater. Indicate which entry you chose by stating its label.
Out: b

(I) Cc1nc(/C=C/[C@@H]2[C@H]3[C@@H](CC(F)(F)[C@H]2C)S(=O)(=O)N[C@@H]3C)ccc1-c1ccccc1C#N [Example 6]
(II) CC(=O)N1[C@H](C)[C@H]2[C@@H](/C=C/c3ccc(-c4ccccc4C#N)cn3)[C@@H](C)C(F)(F)C[C@H]2S1(=O)=O [Example 9]
(III) C[C@H]1NS(=O)(=O)[C@]2(C)CC(F)(F)[C@@H](C)[C@H](/C=C/c3ccc(-c4ccccc4C#N)cn3)[C@H]12 [Example 16]
In: Task for the reader: rank each entry by its pIC50, from the minimum upward. # output: labels, in the requested order
Out: II, I, III
(II: 6.25, I: 7.18, III: 7.93)
